Value source: ChEMBL document CHEMBL2390854

Readings of MIC for the listed molecules
System: Aspergillus niger
assayMethodText: Antifungal activity against Aspergillus niger NCIM 1196 by agar dilution method
Type: functional

{"molecule": "Clc1ccc(COC(Cn2ccnc2)c2ccc(Cl)cc2Cl)c(Cl)c1 (stereo not given)", "MIC": "12.5 µg/mL"}
{"molecule": "COC(=O)C1=C(C(=O)OC)N(c2ccc(Cl)cc2)CN(c2ccc(Cl)cc2)C1", "MIC": "25 µg/mL"}
{"molecule": "COC(=O)C1=C(C(=O)OC)N(c2ccccn2)CN(c2ccccn2)C1", "MIC": "25 µg/mL"}
{"molecule": "COC(=O)C1=C(C(=O)OC)N(c2nc3ccc(OC)cc3s2)CN(c2nc3ccc(OC)cc3s2)C1", "MIC": "12.5 µg/mL"}
{"molecule": "CCOC(=O)C1=C(C(=O)OCC)N(c2ccc(O)cc2)CN(c2ccc(O)cc2)C1", "MIC": "50 µg/mL"}
{"molecule": "COC(=O)C1=C(C(=O)OC)N(c2ccccc2)CN(c2ccccc2)C1", "MIC": "25 µg/mL"}
{"molecule": "CCOC(=O)C1=C(C(=O)OCC)N(c2ccccc2)CN(c2ccccc2)C1", "MIC": "25 µg/mL"}
{"molecule": "COC(=O)C1=C(C(=O)OC)N(c2ccc(O)cc2)CN(c2ccc(O)cc2)C1", "MIC": "50 µg/mL"}
{"molecule": "CCOC(=O)C1=C(C(=O)OCC)N(c2ccc(Cl)cc2)CN(c2ccc(Cl)cc2)C1", "MIC": "25 µg/mL"}
{"molecule": "CCOC(=O)C1=C(C(=O)OCC)N(c2nc3ccc(OC)cc3s2)CN(c2nc3ccc(OC)cc3s2)C1", "MIC": "12.5 µg/mL"}
